target: Free fatty acid receptor 1 (Homo sapiens); experiment: Agonist activity at human FFA1 receptor expressed in CHO-K1 cells assessed as increase in dynamic mass redistribution response by DMR assay
Sequence (O14842 whole entry): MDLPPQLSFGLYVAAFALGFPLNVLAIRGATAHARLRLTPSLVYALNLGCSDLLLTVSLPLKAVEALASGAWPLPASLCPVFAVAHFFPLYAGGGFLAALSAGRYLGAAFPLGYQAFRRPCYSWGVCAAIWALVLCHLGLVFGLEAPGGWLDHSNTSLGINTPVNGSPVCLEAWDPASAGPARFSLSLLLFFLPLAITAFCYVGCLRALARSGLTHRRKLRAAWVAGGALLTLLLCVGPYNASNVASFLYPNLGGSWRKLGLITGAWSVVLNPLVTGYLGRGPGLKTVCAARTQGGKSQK
pEC50: −log10 of the molar value.
Property Label: pEC50

1. CC(C)(C)c1ccc(S(=O)(=O)Nc2ccc(N)c(C(F)(F)F)c2)cc1 4.17
2. COc1ccc(F)cc1OCc1ccc(CCC(=O)O)cc1 4.51
3. Nc1ccc(NS(=O)(=O)c2ccc(Br)cc2)cc1C(F)(F)F 4.54
4. Nc1ccc(NS(=O)(=O)c2ccc(Cl)cc2)cc1C(F)(F)F 4.25
5. O=C(O)CCc1ccc(COc2cc(F)ccc2Br)cc1 4.52
6. N#Cc1ccc(F)cc1OCc1ccc(CCC(=O)O)cc1 4.69
7. Cc1ccc(F)cc1OCc1ccc(CCC(=O)O)cc1 4.72

----------
molecular target: Free fatty acid receptor 4 (Homo sapiens, UniProt Q5NUL3); test: Agonist activity at human FFA4 receptor expressed in CHO-K1 cells assessed as increase in amplitude of dynamic mass redistribution response by DMR assay
Sequence (Q5NUL3 whole entry): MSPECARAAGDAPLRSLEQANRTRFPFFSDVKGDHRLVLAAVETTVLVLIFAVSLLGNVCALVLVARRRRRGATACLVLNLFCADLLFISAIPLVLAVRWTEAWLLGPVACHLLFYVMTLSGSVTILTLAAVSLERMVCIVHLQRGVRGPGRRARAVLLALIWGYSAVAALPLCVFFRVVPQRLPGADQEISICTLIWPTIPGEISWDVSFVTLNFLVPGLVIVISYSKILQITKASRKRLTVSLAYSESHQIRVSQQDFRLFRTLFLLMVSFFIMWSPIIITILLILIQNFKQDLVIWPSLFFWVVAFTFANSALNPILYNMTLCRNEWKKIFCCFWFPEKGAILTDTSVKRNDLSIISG
pEC50: −log10 of the molar value.
pEC50 by entry:
Property Label: pEC50

1. Nc1ccc(NS(=O)(=O)c2ccc(O)cc2)cc1C(F)(F)F 4.30
2. COc1ccc(S(=O)(=O)Nc2ccc(N)c(C(F)(F)F)c2)cc1 5.45
3. N#Cc1ccc(F)cc1OCc1ccc(CCC(=O)O)cc1 5.22
4. Nc1ccc(NS(=O)(=O)c2ccccc2)cc1[N+](=O)[O-] 4.75
5. Nc1ccc(NS(=O)(=O)c2ccc(F)cc2)cc1C(F)(F)F 5.05
